This collection of values is drawn from the supplement of paper PMC10567573.

B1: MLL5 (parent)
chain: EQIAERKRKMVSWEASSLGLVTAA

Variants of: B1
assay.comment: protein stability index of a GFP-peptide fusion (GPS, HEK-293T) (PSI 1-6); higher = more stable;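 further: lentivirally expressed fusions sorted by FACS into six bins by GFP to DsRed ratio, PSI derived from sequencing read proportions per bin multiplied by bin number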
stated.conditions: c terminus: a fixed tail appended
Classification field: enter 1 for protein stability index values not below 3, 0 for values below it.

Here are 5 variants together with their reported answers.
>>> assigned_label("EQIAERKRKMVSWEASSLGLVLAA [T22L]")
0
>>> assigned_label("EQIAERKDKMVSWEASSLGLVTAA [R8D]")
0
>>> assigned_label("EQIAERKRKMVSWEASSLGLVAAA [T22A]")
1
>>> assigned_label("EQIAEGKRKMVSWEASSLGLVTAA [R6G]")
1
>>> assigned_label("EQIAERHRKMVSWEASSLGLVTAA [K7H]")
1

Lookup: Hi, just wondering whether EQIIERKRKMVSWEASSLGLVTAA [A4I] shows protein stability index of 3 or higher.
Found: 0

Lookup: Hi, just wondering whether EQIAECKRKMVSWEASSLGLVTAA [R6C] shows protein stability index of 3 or higher.
Found: 1

Lookup: Hi, just wondering whether EQIAERKRSMVSWEASSLGLVTAA [K9S] shows protein stability index of 3 or higher.
Found: 1

Lookup: Hi, just wondering whether EQIAERKRKMVSWEASPLGLVTAA [S17P] shows protein stability index of 3 or higher.
Found: 1

Lookup: Hi, just wondering whether EQIAERKRKMVSWEASSLQLVTAA [G19Q] shows protein stability index of 3 or higher.
Found: 1

Lookup: Hi, just wondering whether EQIAERFRKMVSWEASSLGLVTAA [K7F] shows protein stability index of 3 or higher.
Found: 0

Lookup: Hi, just wondering whether EQIAERKRKMVSWEASSLGLVTNA [A23N] shows protein stability index of 3 or higher.
Found: 0

Lookup: Hi, just wondering whether EQIAERKRKMVFWEASSLGLVTAA [S12F] shows protein stability index of 3 or higher.
Found: 0

Lookup: Hi, just wondering whether EQIAHRKRKMVSWEASSLGLVTAA [E5H] shows protein stability index of 3 or higher.
Found: 0

Lookup: Hi, just wondering whether KQIAERKRKMVSWEASSLGLVTAA [E1K] shows protein stability index of 3 or higher.
Found: 1

Lookup: Hi, just wondering whether EQIAERKRKMVSWAASSLGLVTAA [E14A] shows protein stability index of 3 or higher.
Found: 0
